ASSAY_NOTES: Antiplatelet activity in New Zealand rabbit platelet-rich plasma assessed as inhibition of ADP-induced aggregation treated for 5 mins prior to ADP-challenge measured after 1 to 6 mins by spectrophotometric analysis
Type: functional, cell-free
CONDITION_LABEL: Oryctolagus cuniculus
PROPERTY: IC50 (µM)

{"columns": ["SMILES_NOTATION", "UNIT_TEXT", "IC50"],
 "data": [
  ["CCCCN1C(=O)COc2cc(CN3CCN(c4ccccc4)CC3)ccc21", "µM", 15.5],
  ["CCCCN1C(=O)COc2cc(CN3CCOCC3)ccc21", "µM", 14.4],
  ["O=C1COc2cc(CN3CCOCC3)ccc2N1Cc1ccccc1", "µM", 12.2],
  ["CC(C)N1C(=O)COc2cc(CN3CCN(c4ccccc4F)CC3)ccc21", "µM", 13.6],
  ["O=C1COc2cc(CN3CCN(c4ccccc4)CC3)ccc2N1Cc1ccccc1", "µM", 13.9],
  ["CCCN1C(=O)COc2cc(CN3CCN(c4ccc(F)cc4)CC3)ccc21", "µM", 11.4]
]}
